assay_procedure: yeast display, Sf9 membrane polyspecificity reagent, FACS + sequencing; frameworks hold sequencing errors
measured_quantity: polyreactivity (PSR sort gate)

Answered examples (4):
{"columns": ["input_sequence", "polyreactivity (PSR sort gate)"],
 "data": [
  ["QVQLVESGGGLVQAGGSLRLSCAASGRTFKAYAMGWYRQAAGKEREFVPAITKRGGSTYYADSVKGRFTISRDNAKNTVYLQMNSLKPEDTAVYYCAVGLGRYTHTSVPIPSYDYWGQGTQVTVSS", "high polyreactivity"],
  ["QVQLVESGGGLVQAGGSLRLSCAASGRTFVSNDMGWYRQAPGKERELVATISSGASTYYADSVKGRFTISRDNAKNTVYLQMNSLKPEDTAVYYCAAEVLVFGGGYDYWGQGTQVTVSS", "low polyreactivity"],
  ["QVQLVESGGGLVQAGGSLRLSCAASGRTYYYYAMGWYRQAPGTQRELVASIRYSTGSTYYADSVKARFTISRDNAKNTVYLQKNSLKPVDTAVYYCAGLRYARASRYDYWGLGTQVTVSS", "high polyreactivity"],
  ["QVQLEESGGGLVQAGGSLRLSCAASGSTFYKYAMGWSRQAPGKERELVASITWSGTSTYYADSVKGRFTISRDNAKNTVYLQMNSLKPEDTAVYYCNAGLEYYYWGYTWEFDYWGQGTQVTVSS", "low polyreactivity"]
]}

Continue with the sequence presented below.
Entry under test: `QVQLVESGGGLVQAGGSLRLSCAASGSTFPYNAMGWYRQAPGKERELVAAITWRAGRTYYADSVKGRFTSSRDNAKNTVYLQMNSLKPEDTAVYYCAKSYQRGVNHYEYWGQGTQVSVSS` . Its polyreactivity (PSR sort gate) was high polyreactivity

====

assay_procedure: yeast display, Sf9 membrane polyspecificity reagent, FACS + sequencing; frameworks hold sequencing errors
measured_quantity: polyreactivity (PSR sort gate)

{"columns": ["input_sequence", "polyreactivity (PSR sort gate)"],
 "data": [
  ["QVQLVESGGGLVQAGGSLRLSCAASGSTFTVNAMGWYRQAPGKDRELVADINWIGGATYYADSVKGRFTSSRDNAKNTVYLQMNSLKPEDTALYYCNADVWEYFTYSFTGFGWYDYWGQGTQVTVSS", "high polyreactivity"],
  ["QVQLVESGGGLVQAGGSLRLSCAASGIILYYYAMGWYRQAPGKERELVAAINWSGGSTSYADSVKGRFTISRDNAKNTVYLQMNSLKPEDTAVYYCAARLGSWHYQVWNYKYEYWGQGTQVTVSS", "high polyreactivity"],
  ["QGQLVESGGGLVQAGGRLRLSCAASGSIFASYAMGWYRQAPGKERELVAAITSDGNTYYADSVKGRFTISRDNAKNTVYLQMNSLKPEDTAVYYCAADRYSTYPYAKGTEFYYWGQGTQVTVSS", "low polyreactivity"],
  ["QVQHVESGGGLVQAGGSLRLSCAASGFIYSTNAMGWYRQAPGKERELVATIRSGGSTNYADSVKGRFTISRDNAKNTVYLQMNCLQPEDTAVYYCNVDDTSWTTSGGRFGQVESDYWGQGTQVTVSS", "low polyreactivity"],
  ["QVQLVESGGGEVQAGGSLRLSCAASGNIFVKYNMGWYRQAPGKERKLVAAIRWSGGTTNYADSVKGRFTISRDNAKSTVYLQMNSLKPEDTAVYYCNTGYWFFGYNEYDYWGQGTQVTVSS", "low polyreactivity"],
  ["QVQLVESGGGLVQAGGSLRLSCAASGSTFESNAMGWSRPAPGKEREFVAAITSGGSTDYADSVKGRFKISRDNAKNTVYLQMNSLKPEDTAVYYCAKGTFDLHYRKRYNYWGQGTQVTVSS", "low polyreactivity"]
]}

Notebook: `QVQLVESGGGLVQPGGSLRLSCAASGRIFYYYAMGWYRQAPGKERELVAAITWNGTSTYYADSVKGRFTISRDNAKNTVYLQMNSLKPEDTAVYYCAKSLRAYRHVIYGKPFYSWGQGTQVTVSS` , polyreactivity (PSR sort gate) read as low polyreactivity

polyreactivity (PSR sort gate) measured on `QVQLVESGGGLVQAGGSLRLSCAASGFTFYYYAMGWYRQAPGKERELVAAINWDGRTYYADSVKGRFTISRDNAKNTVYLQMNTLKPEDTAVYYCAAGYYLLTYRYDYWGQGTQVTVSS` = low polyreactivity

For `QDQIVESGGGLVQAGGSLRLSCASSGFTFYVYAMGWYRQAPCKERELVAAISWSGGRTYYAESVKGRFTISRDNAKNTVYLQMNSLKPEDTAVYYCAAYRYYPSYDYWGQGTQVTVSS` the sequence record lists polyreactivity (PSR sort gate) as high polyreactivity

Recorded result, `QVQLVESGGGLVQAGGSHRLSCAASGSTFLINAMGWYRQAPGKERELVAAISRDGSTNYADSVKGRFTISRDNAKNTVYLQMNSLKPDDTAVYYCAADEQAYYVRRFDYWGEGTQVTVSS` , polyreactivity (PSR sort gate): low polyreactivity

Summary for this sequence, `QVQLVESGGGLVQAGGTLRLSCAASGSIFAGYAMGWYRQAPGKVRELVATITSGGSTNYADSVKGRFTISRDNAKNTVYLQMNSLKPEETAVYYCAADVEDSIATSYTCGEYVYWGQGTQVTVSS` : polyreactivity (PSR sort gate) is low polyreactivity

Cited source for all entries: the nanobody polyreactivity screen of Harvey et al. (2022)
